target: T1, mouse melanocortin-3 receptor (mouse, UniProt P33033 1-323); assay: 125I-NDP-MSH competitive displacement, HEK293 cells stably expressing mMC3R
T1 construct: whole, on cells; also called mMC3R; MC3R
T1 sequence (P33033 whole entry): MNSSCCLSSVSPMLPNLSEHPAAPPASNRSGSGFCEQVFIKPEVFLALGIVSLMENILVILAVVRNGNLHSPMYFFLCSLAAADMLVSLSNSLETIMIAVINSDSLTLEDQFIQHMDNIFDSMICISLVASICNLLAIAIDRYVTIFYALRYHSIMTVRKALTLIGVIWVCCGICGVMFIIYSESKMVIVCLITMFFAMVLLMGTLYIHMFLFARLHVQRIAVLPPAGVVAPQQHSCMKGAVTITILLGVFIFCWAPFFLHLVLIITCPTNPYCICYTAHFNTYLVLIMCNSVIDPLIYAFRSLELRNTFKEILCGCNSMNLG
Square brackets hold non-standard residues; d marks the D form. dPhe(4-I) = N[C@H](Cc1ccc(I)cc1)C(=O)O; Bta = N[C@@H](Cc1csc2ccccc12)C(=O)O
measurement.type: IC50 (µM)
Numeric only. Scale: µM

Reported IC50 for Ac-FR[dPhe(4-I)][Bta]-NH2 [SKY4-48-15, Ac-Phe-Arg-(pI)DPhe-3Bal-NH2] : what is it?
5.35
